Molecular target: Recombinant human 17β-HSD13 (Homo sapiens (Human), UniProt Q7Z5P4)
Sequence (Q7Z5P4 20-300): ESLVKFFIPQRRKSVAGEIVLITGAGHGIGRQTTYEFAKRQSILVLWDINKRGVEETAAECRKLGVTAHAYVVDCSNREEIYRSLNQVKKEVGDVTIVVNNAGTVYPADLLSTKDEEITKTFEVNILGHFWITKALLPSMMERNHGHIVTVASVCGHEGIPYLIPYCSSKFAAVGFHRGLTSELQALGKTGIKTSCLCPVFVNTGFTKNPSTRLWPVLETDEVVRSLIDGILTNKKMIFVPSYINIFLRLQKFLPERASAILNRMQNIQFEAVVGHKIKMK
Experiment: 17β-HSD13 rapid-fire mass spectrometry assay (RF/MS assay)
Conditions: HSD17B13 80 nM, LTB4 10 μM, NAD+ 0.5 mM, RT 3 h, RF/MS readout
pIC50: −log10 of the molar value.
Measured pIC50 accompanies every entry in the list below.

Known results for compounds:
>>> obs_value("COc1ccc(-c2nc3sc4c(O)cccc4c3c(=O)n2C)c(C2CC2)c1")
"> 7.00"
>>> obs_value("Cc1ncc(Cn2c(-c3ccc(F)cc3C3CC3)nc3sc4c(O)cccc4c3c2=O)o1")
"> 7.00"
>>> obs_value("O=c1c2c(nc(-c3ccc4c(c3)OCO4)n1Cc1ccccc1)sc1c(O)cccc12")
"< 5.00"

Switching to the query record.
Query block: Fetch value of pIC50 on Recombinant human 17β-HSD13 (Homo sapiens (Human), UniProt Q7Z5P4) for `CC(C)Oc1ccc(-c2nc3sc4c(O)cccc4c3c(=O)n2Cc2cnco2)c(C2CC2)c1` .
Result block: > 7.00
